# Test system: Staphylococcus aureus
# assay-info: Minimum inhibitory concentration against Staphylococcus aureus OC4172 in presence of mouse serum
# Type: functional
metric: MIC (µg/mL)
Answer with a number only, understood to be in µg/mL.

Answered examples (8):
CC[C@H]1OC(=O)C(C)C(=O)[C@H](C)[C@@H](O[C@@H]2O[C@H](C)C[C@H](N(C)C)[C@H]2O)[C@](C)(OC(=O)N/C=C/c2ccc(-c3cccnc3)cc2)C[C@@H](C)C(=O)[C@H](C)[C@H]2NC(=O)O[C@@]21C (some centres undefined); 1
CC[C@H]1OC(=O)C(C)C(=O)[C@H](C)[C@@H](O[C@@H]2O[C@H](C)C[C@H](N(C)C)[C@H]2O)[C@](C)(OC(=O)N/C=C/c2ccc(-c3ccncc3)cc2)C[C@@H](C)C(=O)[C@H](C)[C@H]2NC(=O)O[C@@]21C (some centres undefined); 2
CC[C@H]1OC(=O)C(C)C(=O)[C@H](C)[C@@H](O[C@@H]2O[C@H](C)C[C@H](N(C)C)[C@H]2O)[C@](C)(OC(=O)NCCc2ccccc2)C[C@@H](C)C(=O)[C@H](C)[C@H]2NC(=O)O[C@@]21C (some centres undefined); 2
CC[C@H]1OC(=O)C(C)C(=O)[C@H](C)[C@@H](O[C@@H]2O[C@H](C)C[C@H](N(C)C)[C@H]2O)[C@](C)(OC(=O)NCc2ccccc2)C[C@@H](C)C(=O)[C@H](C)[C@H]2NC(=O)O[C@@]21C (some centres undefined); 8
CC[C@H]1OC(=O)C(C)C(=O)[C@H](C)[C@@H](O[C@@H]2O[C@H](C)C[C@H](N(C)C)[C@H]2O)[C@](C)(OC(=O)Nc2ccccc2)C[C@@H](C)C(=O)[C@H](C)[C@H]2NC(=O)O[C@@]21C (some centres undefined); 1
CC[C@H]1OC(=O)C(C)C(=O)[C@H](C)[C@@H](O[C@@H]2O[C@H](C)C[C@H](N(C)C)[C@H]2O)[C@](C)(OC(N)=O)C[C@@H](C)C(=O)[C@H](C)[C@H]2NC(=O)O[C@@]21C (some centres undefined); 1
CC[C@H]1OC(=O)C(C)C(=O)[C@H](C)[C@@H](O[C@@H]2O[C@H](C)C[C@H](N(C)C)[C@H]2O)[C@](C)(OC(=O)N/C=C/c2ccc3ccccc3n2)C[C@@H](C)C(=O)[C@H](C)[C@H]2NC(=O)O[C@@]21C (some centres undefined); 0.5
CC[C@H]1OC(=O)C(C)C(=O)[C@H](C)[C@@H](O[C@@H]2O[C@H](C)C[C@H](N(C)C)[C@H]2O)[C@](C)(OC(=O)NCCCc2ccccc2)C[C@@H](C)C(=O)[C@H](C)[C@H]2NC(=O)O[C@@]21C (some centres undefined); 8

Would you kindly look at the next entry?
Inquiry: Given CC[C@H]1OC(=O)C(C)C(=O)[C@H](C)[C@@H](O[C@@H]2O[C@H](C)C[C@H](N(C)C)[C@H]2O)[C@](C)(OC(=O)N/C=C/c2ccc3cccnc3c2)C[C@@H](C)C(=O)[C@H](C)[C@H]2NC(=O)O[C@@]21C (some centres undefined) , state its recorded MIC.
Reply text: 0.5

// data source = ChEMBL document CHEMBL1137031
